- testTarget: T1, A1 protein (mouse, residues 1-152, P104K C113S, used as wild type) (mouse)
- T1 sequence (Q07440 1-152 with P104K C113S, looked up): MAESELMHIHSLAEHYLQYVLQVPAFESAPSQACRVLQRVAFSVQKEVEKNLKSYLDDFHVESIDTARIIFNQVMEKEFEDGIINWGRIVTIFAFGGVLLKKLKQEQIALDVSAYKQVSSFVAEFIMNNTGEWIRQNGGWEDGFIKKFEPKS
- assayOverview: stopped-flow fluorescence kinetics + other: fluorescence dissociation kinetics with competitor; Kd calculated as the ratio koff/kon of the kinetic rate constants; 25 °C; 50 mM sodium phosphate, 0.05% (v/v) Tween 20, pH 7.0
pKd: −log10 of the molar value. Where no end group is shown, it is not given here. The star is where a group is joined. TAMRA = 5-carboxytetramethylrhodamine, CN(C)c1ccc2c(-c3ccc(C(=O)*)cc3C(=O)[O-])c3ccc(=[N+](C)C)cc-3oc2c1
parameterMeasured: pKd

{TAMRA}-SESQEGIIHNIARHLAQIGDEMDHNIQPTLVRQLA (peptide, UniProt P70444 76-110, looked up, BID, mouse, residues 76-110, UniProt P70444; source: synthetic peptide (Biomatik)) [BID E81G peptide, TAMRA-labelled] | 10.33
{TAMRA}-SESQEEIIHNAARHLAQIGDEMDHNIQPTLVRQLA (peptide, UniProt P70444 76-110, looked up, BID, mouse, residues 76-110, UniProt P70444; source: synthetic peptide (Biomatik)) [BID I86A peptide, TAMRA-labelled] | 8.12
{TAMRA}-RVEEEEWAREIGAQLRGAADDLNAQYERRRQEEQH [PUMA R143G peptide (on the M144A wild type), TAMRA-labelled] | 8.76
{TAMRA}-RVEEEEFAREIGAQLRRAADDLNAQYERRRQEEQH [PUMA W133F peptide (on the M144A wild type), TAMRA-labelled] | 9.32
{TAMRA}-RVEEEEWARGIGAQLRRAADDLNAQYERRRQEEQH [PUMA E136G peptide (on the M144A wild type), TAMRA-labelled] | 9.54
{TAMRA}-SESQEEIIHNIARHLAQIGDEMDHNIQPTLVRQLA (BID, mouse, residues 76-110, UniProt P70444; also called WT; source: synthetic peptide (Biomatik)) [BID peptide (mouse, residues 76-110), TAMRA-labelled] | 10.72
